B1: YPEL3 (parent)
chain: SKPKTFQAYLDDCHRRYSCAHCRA

# Variants of: B1
# procedure_details: protein stability index of a GFP-peptide fusion (GPS, HEK-293T) (PSI 1-6); higher = more stable;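 note: lentivirally expressed fusions sorted by FACS into six bins by GFP to DsRed ratio, PSI derived from sequencing read proportions per bin multiplied by bin number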
# measurement_context: c terminus: a fixed tail appended
value_kind: protein stability index

>>> value_measured("C13M")
2.79
>>> value_measured("F6W")
2.44
>>> value_measured("H21C")
1.83
>>> value_measured("R16E")
3.04
>>> value_measured("T5Q")
2.55
>>> value_measured("H21I")
2.52
>>> value_measured("R15F")
2.07
>>> value_measured("L10S")
2.8
>>> value_measured("L10F")
1.99
>>> value_measured("K4V")
2.57
>>> value_measured("A8H")
2.51
>>> value_measured("Y17S")
1.89
>>> value_measured("A20S")
1.46
>>> value_measured("K4F")
1.72
>>> value_measured("C19G")
2.68
>>> value_measured("F6L")
2.27
>>> value_measured("Q7E")
2.16
>>> value_measured("Q7I")
1.4
>>> value_measured("K2C")
2.38
>>> value_measured("C22I")
2.69
>>> value_measured("L10Y")
1.97
>>> value_measured("C19Y")
2.44
>>> value_measured("Y9R")
1.94
>>> value_measured("C22F")
2.32
>>> value_measured("D11P")
2.54
>>> value_measured("F6D")
3.54
>>> value_measured("Y9M")
1.89
>>> value_measured("C13P")
1.68
>>> value_measured("R16Q")
2.5
>>> value_measured("R15C")
2.72
>>> value_measured("L10N")
2.62
>>> value_measured("H21M")
1.18
>>> value_measured("H14Q")
2.23
>>> value_measured("Y9A")
2.19
>>> value_measured("T5D")
2.94
>>> value_measured("C13K")
2.69
>>> value_measured("A20C")
1.31
>>> value_measured("P3A")
1.66
>>> value_measured("R16M")
1.88
>>> value_measured("H14R")
1.73
>>> value_measured("S1W")
1.66
>>> value_measured("A20R")
1.72
>>> value_measured("H21Y")
1.48
>>> value_measured("A8L")
2.4
>>> value_measured("C13E")
1.78
>>> value_measured("K4M")
2.28

Where these numbers come from: the supplement of paper PMC10567573
